Reference source: ChEMBL document CHEMBL4689842

- System: Fibroblast
- experiment.notes: Incucyte cell viability with human fibroblast; also: filed as whole numbers so only -1 and 0 and 1 occur
- Format: toxicity, cell-based
- test.conditions: 24 h, 10 µM, compound concentration 10 uM, replicate number 1, timepoint 24 hours
readout.label: Growth Rate
Numbers only.

Example results:
compound.string	meas.value
COc1cc(N2CCC(N(C)C)CC2)ccc1Nc1ncc(Cl)c(Nc2ccccc2P(C)(C)=O)n1	0
NS(=O)(=O)c1cc(NC(=O)C2(c3ccccc3Cl)CC2)ccc1Oc1cccc(Cl)c1	1
Cc1cc(NC(=O)Nc2ccc(N(C)C)cc2)c2cc(F)cc(F)c2n1	1
CC(C)N1CCC(C)(C)c2cc(C#Cc3ccc(C(=O)O)cc3)ccc21	0
COc1cc2c(NC3CCN(C(C)C)CC3)nc(N3CCC(F)(F)CC3)nc2cc1OCCCN1CCCC1	1

# next compound below
Name the recorded Growth Rate of CC1=C(C#N)C(c2ccc3c(c2)c(NC(=O)c2ccccc2C)nn3C)C(C#N)=C(C)N1 , assay system Fibroblast.
1

====

- System: HEK-293T
- experiment.notes: Multiplex assay against HEK293T
- Assay type: toxicity, cell-based
- test.conditions: human, 12 h, 1 µM, compound concentration 1 uM, replicate 1
Provide the reported Population Normal (%) of each item.
Number first, unit second.

Example results:
compound	Population Normal (%)
CCOc1cc2ncc(C#N)c(Nc3ccc(OCc4cccc(F)c4)c(Cl)c3)c2cc1NC(=O)/C=C/CN(C)C	86%
c1ccc2oc(-c3csc(C4CCN(Cc5nc6ncccc6[nH]5)CC4)n3)cc2c1	80%

# next compound below
Determine from records and report Population Normal (%) for Cc1nc(Cc2cccc(C(F)(F)F)c2)sc1-c1ccc(C(N)=O)nc1 [TP-024n]
85%

====

Provide the reported Growth Rate of each item.
- Test system: Fibroblast
- experiment.notes: Incucyte cell viability with human fibroblast; also: filed as whole numbers so only -1 and 0 and 1 occur
- Assay type: toxicity, cell-based
- test.conditions: 0 h, 10 µM, compound concentration 10 uM, replicate number 1, timepoint 0 hours
One number for each entry.

Example results:
molecule	Growth Rate
Cc1cc(NC(=O)Nc2ccc(N(C)C)cc2)c2cc(F)cc(F)c2n1	1
CNC(=O)c1cc(Oc2ccc(NC(=O)Nc3cc(C(C)(C)C)nn3-c3ccc4ncccc4c3)c(F)c2)ccn1 [REBASTINIB]	0
CCCCc1nc2ccc(NC(=O)NC3CCCCC3)cc2n1Cc1ccc(-c2ccccc2C(=O)O)cc1	0
Cc1nc2sccn2c(=O)c1CCN1CCC(=C(c2ccc(F)cc2)c2ccc(F)cc2)CC1 [RITANSERIN]	0

Value sought for every listed molecule: Growth Rate.
1. COc1cccc(OC)c1-c1cc(C(=O)NC2(C(=O)O)C3CC4CC(C3)CC2C4)nn1-c1ccnc2cc(Cl)ccc12 (stereo unspecified) [REMINERTANT]
2. Nc1nc2c(c(N3CCNCC3)n1)CCC1=C2[C@@H]2CCCC[C@@H]2O1

[0, 0]

Value sought for every listed molecule: Growth Rate.
1. CNc1nc(Nc2cnn([C@H]3CCN(C4COC4)C[C@@H]3F)c2Cl)ncc1C(F)(F)F
2. COc1ccc(/C=C/CCCCOc2ccc(C(=O)c3cccc(C(=O)O)c3)cc2CCC(=O)O)cc1
3. O=C(O)COc1cccc(CN(Cc2ccc(-n3cccn3)cc2)S(=O)(=O)c2cccnc2)c1
4. CCN(CC)CCCCC1CCN(CC(=O)N2c3ccccc3C(=O)Nc3cccnc32)CC1

0
0
1
0

Name the recorded Growth Rate of N#Cc1c(N)nc(SCC(N)=O)c(C#N)c1-c1ccc(OCC2CC2)cc1 , assay system Fibroblast.
0

====

- Tested on: HEK-293T
- experiment.notes: Multiplex assay against HEK293T
- Type: toxicity, cell-based
- test.conditions: human, 48 h, 10 µM, compound concentration 10 uM, replicate 1
readout.label: Population Healthy Nuclei (%)
Numbers only, in %.

Value sought for every listed compound: Population Healthy Nuclei (%).
1. CC(=O)c1cc(-c2cc(C(=O)NC3CC3)ccc2C)c2ncccn12
2. CNc1oc(-c2cccc3ccccc23)nc1C#N
3. CC(C)N1CCC(C)(C)c2cc(C#Cc3ccc(C(=O)O)cc3)ccc21

24
16
38

====

- System: U2OS
- experiment.notes: Multiplex assay against U2OS
- Type: toxicity, cell-based
- test.conditions: human, 12 h, 10 µM, compound concentration 10 uM, replicate 2
Provide the reported Population Hoechst High Intensity Objects (%) of each item.
One number for each entry, in %.

compound	meas.value
COc1cc2c(Nc3ccc(NC(=O)c4ccccc4)cc3)ncnc2cc1OCCCN1CCOCC1	11
N#Cc1cnc(Nc2cc(NC[C@H]3CNCCO3)c(C(F)(F)F)cn2)cn1	9
Cl.Cl.Nc1ncnc2c1c(-c1cccc(OCc3ccccc3)c1)cn2[C@H]1C[C@@H](CN2CCC2)C1	8
CN(C)C/C=C/C(=O)Nc1cc2c(Nc3ccc(F)c(Cl)c3)ncnc2cc1O[C@H]1CCOC1.O=C(O)/C=C\C(=O)O.O=C(O)/C=C\C(=O)O [AFATINIB DIMALEATE]	13

# next compound below
Name the recorded Population Hoechst High Intensity Objects (%) of CC(C)(C)c1cnc(CSc2cnc(NC(=O)C3CCNCC3)s2)o1 , assay system U2OS.
13

====

- System: HEK-293T
- experiment.notes: Multiplex assay against HEK293T
- Assay type: toxicity, cell-based
- test.conditions: human, 48 h, 10 µM, compound concentration 10 uM, replicate 2
readout.label: Total Cell Count
Numbers only.

compound	meas.value
Nc1ccc(C(=O)Nc2cccc(-c3nc(N4CCOCC4)c4oc5ncccc5c4n3)c2)cn1	304
C1=N/C2=N/c3ccc(OCCN4CCCC4)c(c3)COC/C=C\COCc3cccc(c3)C(=C1)N2	212
Cc1nc(Cc2cccc(C(F)(F)F)c2)sc1-c1ccc(C(N)=O)nc1 [TP-024n]	164
CCCn1c(=O)c2[nH]c(C34CC5CC(CC3C5)C4)nc2n(CCC)c1=O	185

# next compound below
Determine from records and report Total Cell Count for Cl.Cl.Nc1ncnc2c1c(-c1cccc(OCc3ccccc3)c1)cn2[C@H]1C[C@@H](CN2CCC2)C1
234

====

- Test system: U2OS
- experiment.notes: Multiplex assay against U2OS
- Format: toxicity, cell-based
- test.conditions: human, 12 h, 10 µM, compound concentration 10 uM, replicate 2
Provide the reported Population Normal (%) of each item.
One number for each entry, in %.

molecule	Population Normal (%)
N#Cc1cnc(Nc2cc(NC[C@H]3CNCCO3)c(C(F)(F)F)cn2)cn1	90
Cl.Cl.Nc1ncnc2c1c(-c1cccc(OCc3ccccc3)c1)cn2[C@H]1C[C@@H](CN2CCC2)C1	91
Cc1cc2c(cc1N1C(=O)c3cccc4c(CCCO)ccc(c34)C1=O)n(C)c(=O)n2C	90
CN(C)CCOc1ccc(-c2nc(-c3ccncc3)c(-c3ccc4c(c3)CC/C4=N\O)[nH]2)cc1	89
O=C(O)c1ccc2cc(-c3ccc(O)c(C45CC6CC(CC(C6)C4)C5)c3)ccc2c1	97

Value sought for every listed molecule: Population Normal (%).
1. Nc1ccc(C(=O)Nc2cccc(-c3nc(N4CCOCC4)c4oc5ncccc5c4n3)c2)cn1
2. CNC(=O)c1cc(Oc2ccc(NC(=O)Nc3cc(C(C)(C)C)nn3-c3ccc4ncccc4c3)c(F)c2)ccn1
3. Nc1nc2c(c(N3CCNCC3)n1)CCC1=C2[C@@H]2CCCC[C@@H]2O1
4. CC(=O)c1cc(-c2cc(C(=O)NC3CC3)ccc2C)c2ncccn12
5. CCCn1c(=O)c2[nH]c(C34CC5CC(CC3C5)C4)nc2n(CCC)c1=O
6. COc1ccc(NS(=O)(=O)c2sc3ccc(Cl)cc3c2C)cc1N1CCNCC1.Cl

80
88
96
95
96
95

Value sought for every listed molecule: Population Normal (%).
1. Cc1cn(-c2cc(NC(=O)c3ccc4c(c3)CN(c3cncnc3)C[C@@H]4C)cc(C(F)(F)F)c2)cn1
2. CN(C)C/C=C/C(=O)Nc1cc2c(Nc3ccc(F)c(Cl)c3)ncnc2cc1O[C@H]1CCOC1.O=C(O)/C=C\C(=O)O.O=C(O)/C=C\C(=O)O [AFATINIB DIMALEATE]
3. c1ccc2oc(-c3csc(C4CCN(Cc5nc6ncccc6[nH]5)CC4)n3)cc2c1
4. CC(C)N1CCC(C)(C)c2cc(C#Cc3ccc(C(=O)O)cc3)ccc21

84
86
84
28

====

- Test system: HEK-293T
- experiment.notes: Multiplex assay against HEK293T
- Format: toxicity, cell-based
- test.conditions: human, 48 h, 1 µM, compound concentration 1 uM, replicate 1
readout.label: Population Healthy Nuclei (%)
Answers are plain numbers, in %.

Example results:
compound	unit.annotation	Population Healthy Nuclei (%)
Cc1nc(Cc2cccc(C(F)(F)F)c2)sc1-c1ccc(C(N)=O)nc1 [TP-024n]	%	50
COc1ccc(NS(=O)(=O)c2sc3ccc(Cl)cc3c2C)cc1N1CCNCC1.Cl	%	51

# next compound below
Determine from records and report Population Healthy Nuclei (%) for CCC(=O)O[C@]1(C(=O)SCF)[C@H](C)C[C@H]2[C@@H]3C[C@H](F)C4=CC(=O)C=C[C@]4(C)[C@@]3(F)[C@@H](O)C[C@@]21C [FLUTICASONE PROPIONATE]
50
